- system: human sphingosine-1-phosphate receptor 1 (S1P1) (Homo sapiens)
- measurementNotes: Inhibition of cAMP production (HTRF cAMP HiRange), S1P1 CHO-K1 cells
- Type: cell-based
- assaySetup: CHO-K1; inhibition of cAMP production; efficacy normalized to maximum efficacy of fingolimod; read-out: hS1P1 CAMP SPAN
Emax overview

Problem: Reported Emax for "Cc1cc(-c2nc(-c3ccc4c(c3)nnn4C(C)C)no2)cnc1C" : what is it?
Solution: < 75%

Problem: Further, for "CC(C)n1ccc2cc(-c3nc(-c4cccc5c4OCCC5)no3)ccc21" ?
Solution: < 75%

Problem: Quick one: "COc1ccccc1-c1nnc(-c2ccc3c(c2)CCC(=O)N3)o1"
Solution: < 75%

Problem: Now consider "CC(C)c1ccc(-c2nc(-c3ccc4c(c3)nnn4C(C)C)no2)cn1" .
Solution: < 75%

Problem: For "Cc1ccc(-c2noc(-c3ccc4c(c3)nnn4C3CCCC3)n2)s1" then?
Solution: < 75%

Problem: Try this compound too: "CC(C)n1nnc2cc(-c3noc(C4CCCC4)n3)ccc21"
Solution: < 75%

----------
- system: human sphingosine-1-phosphate receptor 1 (S1P1) (Homo sapiens, UniProt P21453)
- Sequence (P21453 whole entry): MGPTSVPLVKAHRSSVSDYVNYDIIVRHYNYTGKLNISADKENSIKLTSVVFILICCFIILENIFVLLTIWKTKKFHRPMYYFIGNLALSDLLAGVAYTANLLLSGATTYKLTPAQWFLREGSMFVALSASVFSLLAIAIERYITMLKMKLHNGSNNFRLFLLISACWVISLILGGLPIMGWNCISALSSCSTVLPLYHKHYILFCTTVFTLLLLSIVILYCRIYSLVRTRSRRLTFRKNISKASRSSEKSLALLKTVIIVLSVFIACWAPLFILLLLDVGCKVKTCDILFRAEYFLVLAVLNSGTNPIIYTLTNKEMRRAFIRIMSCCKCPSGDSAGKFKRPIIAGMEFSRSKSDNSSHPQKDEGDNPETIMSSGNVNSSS
- measurementNotes: Inhibition of cAMP production (HTRF cAMP HiRange), S1P1 CHO-K1 cells
- Format: cell-based
- assaySetup: CHO-K1; efficacy normalized to maximum efficacy of fingolimod; read-out: hS1P1 CAMP SPAN
- Method: Stable clonal Chinese hamster ovary K1 (CHO-K1) cells co-expressing EA-β-arrestin2 and the human sphingosine-1-phosphate receptor 1 (NM_001400, S1P1) with a C-terminal Prolink™ tag were purchased from DiscoverX corporation (Cat #: 93-0207C2). […] Agonist-promoted G-protein responses were determined by measuring changes in intracellular cAMP using the HTRF® cAMP HiRange kit (CisBio, Cat #: 62AM6PEJ) based on time-resolved fluorescence resonance energy transfer (TR-FRET) technology. […]
measure: Emax

Consider the following illustrative entries.
molecule: N#Cc1cc(-c2nnc(-c3ccc4c(c3)CCC(=O)N4)o2)ccc1NCCF [Compound 476]
system: human sphingosine-1-phosphate receptor 1 (S1P1) (Homo sapiens, UniProt P21453)
Emax: > 75%

molecule: CCC1(CC)CC(=O)c2cc(-c3nc(-c4ccc(F)nc4)no3)ccc2O1 [Compound 546]
system: human sphingosine-1-phosphate receptor 1 (S1P1) (Homo sapiens, UniProt P21453)
Emax: < 75%

molecule: N#Cc1cc(-c2nnc(-c3ccc4[nH]c(=O)oc4c3)o2)ccc1NCC(F)F [Compound 488]
system: human sphingosine-1-phosphate receptor 1 (S1P1) (Homo sapiens, UniProt P21453)
Emax: < 75%

Now for the molecule whose Emax we want.
Problem: May I ask what Emax has been recorded for CCC1(CC)CC(=O)c2cc(-c3nc(-c4ccc5cnccc5c4)no3)ccc2O1 [Compound 522] ?
Solution: > 75%

----------
- system: human sphingosine-1-phosphate receptor 1 (S1P1) (Homo sapiens, UniProt P21453)
- measurementNotes: Inhibition of cAMP production (HTRF cAMP HiRange), S1P1 CHO-K1 cells
- Format: cell-based
- assaySetup: inhibition of cAMP production, S1P1; read-out: hS1P1 CAMP pEC50 (converted)
measure: EC50

chemicalStructure: CC(C)n1nnc2cc(-c3nc(-c4ccncc4C(F)(F)F)no3)ccc21
EC50: < 316 nM
//
chemicalStructure: CC(C)n1nnc2cc(-c3nc(-c4sccc4Cl)co3)ccc21
EC50: < 316 nM
//
chemicalStructure: COc1ccc(-c2nc(-c3ccc4c(c3)nnn4CC(C)(C)CO)no2)c(C)c1
EC50: > 316 nM
//
chemicalStructure: COc1ccccc1-c1noc(-c2ccc3c(c2)NC(=O)CN3)n1
EC50: > 316 nM

Problem: Param readout= EC50; system= human sphingosine-1-phosphate receptor 1 (S1P1) (Homo sapiens, UniProt P21453); entry= "CCC1(CC)CC(=O)c2cc(-c3ncc(-c4ccccc4OC)cn3)ccc2O1" ; returns value.
Solution: < 316 nM
